Values from ChEMBL document CHEMBL1961873

Target: Serine/threonine-protein kinase D3 (Homo sapiens);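 note: each value is the mean of inhibition readings, from a kinase profiling panel run on the GSK PKIS inhibitor collection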
Sequence (whole entry): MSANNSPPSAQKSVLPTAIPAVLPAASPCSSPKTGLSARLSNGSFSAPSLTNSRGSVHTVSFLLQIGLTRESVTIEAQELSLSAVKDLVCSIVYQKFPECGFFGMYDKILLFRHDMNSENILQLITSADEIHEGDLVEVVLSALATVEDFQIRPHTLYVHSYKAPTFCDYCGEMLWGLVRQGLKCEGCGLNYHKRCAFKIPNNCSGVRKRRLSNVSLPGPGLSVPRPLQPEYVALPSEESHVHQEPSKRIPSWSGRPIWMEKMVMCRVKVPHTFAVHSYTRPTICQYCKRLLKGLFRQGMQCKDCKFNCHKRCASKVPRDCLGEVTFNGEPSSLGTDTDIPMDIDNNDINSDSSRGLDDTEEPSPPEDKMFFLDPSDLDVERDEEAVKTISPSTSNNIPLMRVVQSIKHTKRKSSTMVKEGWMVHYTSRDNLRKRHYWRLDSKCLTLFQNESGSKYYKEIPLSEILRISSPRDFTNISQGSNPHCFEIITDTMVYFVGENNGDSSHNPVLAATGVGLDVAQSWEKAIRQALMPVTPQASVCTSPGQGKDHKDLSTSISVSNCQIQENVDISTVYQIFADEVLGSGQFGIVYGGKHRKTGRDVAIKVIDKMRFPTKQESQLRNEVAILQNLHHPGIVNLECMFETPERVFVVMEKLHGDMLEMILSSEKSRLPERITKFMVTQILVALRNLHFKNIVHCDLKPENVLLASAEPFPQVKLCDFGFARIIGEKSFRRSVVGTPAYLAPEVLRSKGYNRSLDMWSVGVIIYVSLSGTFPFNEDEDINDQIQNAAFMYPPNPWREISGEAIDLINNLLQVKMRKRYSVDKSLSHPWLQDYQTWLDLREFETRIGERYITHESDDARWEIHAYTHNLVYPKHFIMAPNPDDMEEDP
Settings: at 0.1 µM
Measure Name: inhibition (%)
Numeric only. Scale: %

Smiles Str | inhibition (%)
NCc1ccc(-n2c(-c3nonc3N)nc3cnccc32)cc1 | 8.56

IN: Look up and report measured inhibition for this entry: "NS(=O)(=O)c1ccc(N/N=C2\C(=O)Nc3ccc(-c4cnco4)cc32)cc1"
OUT: -1.69

IN: Look up and report measured inhibition for this entry: "Fc1ccc(-c2ncn(CCCN3CCOCC3)c2-c2ccncc2)cc1"
OUT: 1.63

IN: Look up and report measured inhibition for this entry: "NC(=O)c1cc(-c2ccncc2)cc(-c2ccccc2)c1N"
OUT: 5.86

IN: Look up and report measured inhibition for this entry: "CN(c1ccc(NC(=O)Nc2c(Cl)cccc2Cl)cc1)c1ccnc(Nc2cccc(CS(C)(=O)=O)c2)n1"
OUT: 1.3

IN: Look up and report measured inhibition for this entry: "COc1cc(N2CCN(C(C)C)CC2)ccc1Nc1nc(Nc2ccc(F)cc2C(=O)NC[C@@H](O)CO)c2cc[nH]c2n1"
OUT: 3.93

IN: Look up and report measured inhibition for this entry: "Cc1nnc(-c2ccc(C)c(-c3ccc(C(=O)NCc4ccc(Cl)cc4)cc3)c2)o1"
OUT: 2.09

IN: Look up and report measured inhibition for this entry: "CCS(=O)(=O)c1ccc(OC)c(Nc2ncc(-c3cccc(-c4ccccc4F)c3)o2)c1"
OUT: 1.19

IN: Look up and report measured inhibition for this entry: "O=C(Nc1n[nH]c2nc(-c3ccco3)ccc12)C1CC1"
OUT: 0.02

IN: Look up and report measured inhibition for this entry: "Clc1ccc(CNc2nccc(-c3cnn4ncccc34)n2)cc1"
OUT: 0.83

IN: Look up and report measured inhibition for this entry: "Cc1ccc(C(=O)NC2CCC2)cc1-c1ccc(C(=O)NCC2CC2)cc1"
OUT: 2.86

IN: Look up and report measured inhibition for this entry: "COc1ccc(-c2ccc3c(NC(=O)C4CC4)n[nH]c3n2)cc1"
OUT: 1.45

IN: Look up and report measured inhibition for this entry: "COc1cccc(-n2cnc3c(N/N=C/c4ccncc4)ncnc32)c1"
OUT: -3.34

IN: Look up and report measured inhibition for this entry: "CS(=O)(=O)CCNCc1ccc(-c2ccc3ncnc(Nc4ccc(OCc5ccccc5)c(Br)c4)c3c2)o1"
OUT: -0.06

IN: Look up and report measured inhibition for this entry: "NC(=O)c1ccc(Oc2nccc(-c3c(-c4ccc(F)cc4)ncn3C3CCNCC3)n2)cc1"
OUT: 4.58

IN: Look up and report measured inhibition for this entry: "Cc1ccc(NC(=O)c2ccoc2)cc1-c1ccc(C(=O)NCC2CC2)cc1"
OUT: 2.92

IN: Look up and report measured inhibition for this entry: "CCc1ccc(Oc2nccc(-c3c(-c4ccc(F)cc4)ncn3C3CCNCC3)n2)cc1"
OUT: 4.01

IN: Look up and report measured inhibition for this entry: "COc1cc(Nc2ncc(-c3ccccc3)o2)cc(OC)c1OC"
OUT: -1.81

IN: Look up and report measured inhibition for this entry: "CNC(=O)c1cncc(/C=C/c2c(C)cccc2C)c1"
OUT: -2.33

IN: Look up and report measured inhibition for this entry: "COc1ccc2ncn(-c3cc(O[C@H](C)c4ccccc4Cl)c(C(N)=O)s3)c2c1"
OUT: 0.19

---

Molecular target: Testis-specific serine/threonine-protein kinase 1 (Homo sapiens) (UniProt Q9BXA7);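 note: mean percent inhibition of TSSK1, from the GSK PKIS screening dataset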
Sequence (Q9BXA7 whole entry): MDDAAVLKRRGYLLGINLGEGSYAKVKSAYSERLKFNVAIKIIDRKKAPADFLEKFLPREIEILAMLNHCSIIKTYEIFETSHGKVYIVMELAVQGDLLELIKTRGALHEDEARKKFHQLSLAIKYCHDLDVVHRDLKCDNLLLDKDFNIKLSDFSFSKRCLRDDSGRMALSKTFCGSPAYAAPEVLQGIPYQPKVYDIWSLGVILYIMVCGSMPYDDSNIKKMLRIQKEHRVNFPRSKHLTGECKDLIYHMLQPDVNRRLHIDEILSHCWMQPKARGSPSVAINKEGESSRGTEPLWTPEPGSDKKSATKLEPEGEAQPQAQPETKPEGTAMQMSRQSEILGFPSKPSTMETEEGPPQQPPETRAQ
Conditions: at 0.1 µM
Measure Name: inhibition

The examples below pair each entry with its known result.
Smiles Str | inhibition
COc1cc(Nc2ncc3c(C)nc(-c4cccc(Oc5ccccc5)c4)n3n2)cc(OC)c1OC | 3.11%
Fc1ccc(-c2c(-c3ccncc3)nc3n2CCS3)cc1 | 2.46%
O=C(Nc1n[nH]c2nc(-c3ccco3)ccc12)C1CC1 | 1.99%
CN1CCN(CCCNc2nc3ccc(Oc4ccc(NC(=O)Nc5cc(C(F)(F)F)ccc5F)cc4)cc3[nH]2)CC1 | 0.87%

API: the following record is the query input.
IN: Look up and report measured inhibition for this entry: "CCS(=O)(=O)c1ccc(OC)c(Nc2ncc(-c3cccc(-c4ccccc4F)c3)o2)c1"
OUT: 0.94%

---

System: Tyrosine-protein kinase ABL1 (Homo sapiens), P00519 [E255K]
Sequence (P00519 whole entry E255K): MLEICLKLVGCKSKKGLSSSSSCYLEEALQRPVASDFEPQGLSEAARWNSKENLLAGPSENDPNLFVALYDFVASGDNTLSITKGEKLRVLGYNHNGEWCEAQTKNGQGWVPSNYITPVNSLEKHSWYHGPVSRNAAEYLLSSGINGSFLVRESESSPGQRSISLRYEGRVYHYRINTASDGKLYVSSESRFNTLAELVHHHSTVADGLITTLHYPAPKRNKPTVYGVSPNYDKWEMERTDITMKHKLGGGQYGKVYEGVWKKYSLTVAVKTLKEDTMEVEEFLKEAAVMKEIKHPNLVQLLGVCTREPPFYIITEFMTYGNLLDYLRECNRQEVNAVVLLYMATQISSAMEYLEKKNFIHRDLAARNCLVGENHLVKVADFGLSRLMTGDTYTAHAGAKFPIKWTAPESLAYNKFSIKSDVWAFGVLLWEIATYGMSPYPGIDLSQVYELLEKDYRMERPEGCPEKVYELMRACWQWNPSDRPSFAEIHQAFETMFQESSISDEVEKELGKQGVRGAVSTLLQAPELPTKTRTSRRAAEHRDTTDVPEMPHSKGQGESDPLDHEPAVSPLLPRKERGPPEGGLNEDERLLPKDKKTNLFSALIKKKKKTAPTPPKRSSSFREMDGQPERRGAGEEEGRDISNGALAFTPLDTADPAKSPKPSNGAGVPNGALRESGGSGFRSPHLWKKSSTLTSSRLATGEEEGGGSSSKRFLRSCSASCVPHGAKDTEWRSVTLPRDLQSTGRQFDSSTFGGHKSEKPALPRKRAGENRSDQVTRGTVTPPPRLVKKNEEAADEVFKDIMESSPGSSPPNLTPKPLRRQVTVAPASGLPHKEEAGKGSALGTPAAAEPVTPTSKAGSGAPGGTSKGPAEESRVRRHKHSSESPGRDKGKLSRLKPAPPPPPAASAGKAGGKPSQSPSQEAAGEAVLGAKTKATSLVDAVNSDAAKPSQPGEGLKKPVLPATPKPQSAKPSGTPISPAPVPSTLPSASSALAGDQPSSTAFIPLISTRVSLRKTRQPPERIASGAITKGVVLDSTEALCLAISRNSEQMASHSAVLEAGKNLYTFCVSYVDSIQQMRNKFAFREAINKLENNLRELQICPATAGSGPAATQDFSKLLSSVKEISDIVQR
Conditions: at 1 µM
Reported inhibition values follow for various compounds
Numeric only. Scale: %

The examples below pair each entry with its known result.
Smiles Str | inhibition (%)
N#Cc1ccc(Oc2nccc(-c3c(-c4ccc(F)cc4)ncn3C3CCNCC3)n2)cc1 | 3.79
COc1cc2ncn(-c3cc(OCc4ccccc4C(F)(F)F)c(C(C)=O)s3)c2cc1OC | 4.89
COc1ccc(C2=C(N3CCc4ccccc43)C(=O)NC2=O)cc1 | 3.94
CCC(=O)Nc1ccc(C)c(-c2ccc(C(=O)NCC3CC3)cc2)c1 | 2.73
CS(=O)(=O)CCNCc1ccc(-c2ccc3ncnc(Nc4ccc(OCc5ccccc5)c(Br)c4)c3c2)o1 | 2.28
C#Cc1cccc(Nc2ncnc3ccc(OCCCCNCCS(C)(=O)=O)cc23)c1 | 19.7
O=C(Nc1n[nH]c2cc(-c3cc(F)ccc3F)ccc12)C1CC1 | 31.4
CN(c1ccc(NC(=O)Nc2c(Cl)cccc2Cl)cc1)c1ccnc(Nc2cccc(CS(C)(=O)=O)c2)n1 | 35.9
Fc1ccc(-c2ncn(C3CCNCC3)c2-c2ccnc(Oc3ccc4c(c3)OCO4)n2)cc1 | 4.48
CCc1nccc2c1nc(-c1nonc1N)n2CC | 0.91

IN: Look up and report measured inhibition for this entry: "CCS(=O)(=O)c1ccc(OC)c(Nc2ncc(-c3ccccc3Cl)o2)c1"
OUT: 16.3

IN: Look up and report measured inhibition for this entry: "CS(=O)(=O)CCNCc1cc(-c2cc3c(Nc4ccc(OCc5cccc(F)c5)c(Cl)c4)ncnc3s2)cs1"
OUT: 4.04

---

Target: CDK3/Cyclin E (Homo sapiens) (UniProt P24864+Q00526);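 note: reported percentages are mean inhibition values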
Sequence (P24864 whole entry, looked up): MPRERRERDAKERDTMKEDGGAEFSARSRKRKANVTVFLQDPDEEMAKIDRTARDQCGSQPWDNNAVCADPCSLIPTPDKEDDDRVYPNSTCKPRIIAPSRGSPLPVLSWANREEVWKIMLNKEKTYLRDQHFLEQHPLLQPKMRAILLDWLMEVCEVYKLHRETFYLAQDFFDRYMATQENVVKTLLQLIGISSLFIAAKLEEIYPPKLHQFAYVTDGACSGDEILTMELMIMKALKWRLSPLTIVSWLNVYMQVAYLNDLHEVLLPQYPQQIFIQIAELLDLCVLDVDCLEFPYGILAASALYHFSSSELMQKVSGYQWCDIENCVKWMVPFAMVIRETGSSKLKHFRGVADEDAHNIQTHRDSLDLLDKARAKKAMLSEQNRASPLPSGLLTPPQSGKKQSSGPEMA
Sequence (Q00526 whole entry, looked up): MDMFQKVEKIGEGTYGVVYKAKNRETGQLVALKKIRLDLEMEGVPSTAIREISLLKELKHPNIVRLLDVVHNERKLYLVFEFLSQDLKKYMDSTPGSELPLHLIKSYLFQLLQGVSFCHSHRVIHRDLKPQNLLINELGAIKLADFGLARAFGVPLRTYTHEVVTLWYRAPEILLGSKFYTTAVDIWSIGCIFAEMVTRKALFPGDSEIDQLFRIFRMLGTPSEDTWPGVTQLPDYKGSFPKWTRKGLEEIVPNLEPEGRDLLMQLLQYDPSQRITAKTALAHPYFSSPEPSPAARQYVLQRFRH
Conditions: at 0.1 µM
Measure Name: inhibition (%)
Numeric only. Scale: %

Smiles Str | Display Unit | Value Observed
COc1cccc(-n2cnc3c(N/N=C/c4ccncc4)ncnc32)c1 | % | -0.66
O=C1Nc2ccc(I)cc2C1=Cc1cc(Br)c(O)c(Br)c1 | % | -4.12
Fc1ccc(-c2c(-c3ccncc3)nc3n2CCS3)cc1 | % | 2.29
COc1cc(C)c(N(C)C(=O)CN(C)C)cc1Nc1nc(Nc2cccc(F)c2C(N)=O)c2cc[nH]c2n1 | % | -0.03
CCC(=O)Nc1ccc(C)c(-c2ccc(C(=O)NCC3CC3)cc2)c1 | % | -1.57
NC(=O)c1ccc(Oc2nccc(-c3c(-c4ccc(F)cc4)ncn3C3CCNCC3)n2)cc1 | % | -3.59

API: the following record is the query input.
IN: Look up and report measured inhibition for this entry: "CCc1ccc(Oc2nccc(-c3c(-c4ccc(F)cc4)ncn3C3CCNCC3)n2)cc1"
OUT: -2.23

---

Molecular target: Tyrosine-protein kinase Lck (Homo sapiens) (UniProt P06239);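 note: reported values are mean percent inhibition of Lck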
Sequence (P06239 2-509 limits assumed): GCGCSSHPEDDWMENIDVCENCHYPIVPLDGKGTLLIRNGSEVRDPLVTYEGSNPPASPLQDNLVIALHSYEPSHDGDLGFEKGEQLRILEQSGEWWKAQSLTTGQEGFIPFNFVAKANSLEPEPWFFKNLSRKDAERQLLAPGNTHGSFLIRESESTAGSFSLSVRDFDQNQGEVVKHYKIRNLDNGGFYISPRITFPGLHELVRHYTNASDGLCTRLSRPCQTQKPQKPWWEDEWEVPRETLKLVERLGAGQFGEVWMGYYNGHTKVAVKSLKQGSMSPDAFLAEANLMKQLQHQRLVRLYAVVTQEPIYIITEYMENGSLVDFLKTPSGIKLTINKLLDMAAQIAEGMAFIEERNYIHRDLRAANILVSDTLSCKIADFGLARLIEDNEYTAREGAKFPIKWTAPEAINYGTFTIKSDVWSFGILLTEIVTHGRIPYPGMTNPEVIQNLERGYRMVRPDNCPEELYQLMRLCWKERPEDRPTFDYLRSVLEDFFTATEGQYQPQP
Conditions: at 0.1 µM
Reported inhibition values follow for various molecules
Numeric only. Scale: %

The examples below pair each entry with its known result.
Smiles Str | Display Unit | inhibition
COc1cccc(/C=N/Nc2ncnc3c2cnn3-c2cccc(OC)c2)c1 | % | 2.18
COc1cc2ncn(-c3cc(OCCc4ccccc4)c(C(N)=O)s3)c2cc1OC | % | 2.24
Fc1ccc(-c2ncn(C3CCNCC3)c2-c2ccnc(Oc3ccc4c(c3)OCO4)n2)cc1 | % | 3.98
Fc1ccc(-c2c(-c3ccncc3)nc3n2CCS3)cc1 | % | -3.58

IN: Look up and report measured inhibition for this entry: "Fc1ccc(-c2ncn(CCCN3CCOCC3)c2-c2ccncc2)cc1"
OUT: 0.17

IN: Look up and report measured inhibition for this entry: "O=C1NC(=O)C(c2cccc(Cl)c2)=C1Nc1ccc(Cl)c(C(=O)O)c1"
OUT: 1.82

IN: Look up and report measured inhibition for this entry: "O=C(Nc1n[nH]c2nc(-c3ccco3)ccc12)C1CC1"
OUT: 1.24

IN: Look up and report measured inhibition for this entry: "O=C(Nc1n[nH]c2cc(-c3ccccc3)ccc12)C1CC1"
OUT: 2.21

IN: Look up and report measured inhibition for this entry: "COc1cc(N2CCN(C(C)C)CC2)ccc1Nc1nc(Nc2ccc(F)cc2C(=O)NC[C@@H](O)CO)c2cc[nH]c2n1"
OUT: -1.06

IN: Look up and report measured inhibition for this entry: "O=C(Nc1n[nH]c2nc(-c3ccc(O)cc3)c(Br)cc12)C1CC1"
OUT: 6.75
